targetUnderTest: T1, QIEKAVEGKSQIQ (not fully specified)
T1 construct: alanine at this position
T1 peptide: QIEKAVEGKSQIQ
assayRemarks: ELISA, immobilized peptide QIEKAVEGKSQIQ
No end group written: not given here.
Label fulfilled when OD450 absorbance is strictly below 0.2; at or above that, label not fulfilled.

binder	groupLabel
MM02 (antibody, IgG2b, V domains shown) VH: QIQLVQSGPEVKKPGETVRISCKASGYTLTTAGIQWVQKMPGKGLKWIGWINTHSGVPEYAEDFKGRFAFFLETSASTAYLQISNLKNEDTATYFCARLGLLGYWGQGTTLTVSS VL: DILLTQSPAILSVSPGERVSFSCRASQSIGTTIHWYQQRTNGSPRLLIKYASESISGIPSRFSGSGSGTDFTLSINSVESEDIADYYCQQSNSWPWTFGGGTKLEIKR	fulfilled
MM07 (antibody, V domains shown, The VH and VL begin with what look like leader peptides (MDWLW..., MVSSAQ...)) VH: QIQLVQSGPELKKPGETVRISCKASGYTLTTAGMQWVQKIPGKGLKWIGWINTHSGVAEFAEDFKGRFAFSLETSANTAYLQIRNLKNEDTATYFCARLGLLGYWGQGTTLTVSS VL: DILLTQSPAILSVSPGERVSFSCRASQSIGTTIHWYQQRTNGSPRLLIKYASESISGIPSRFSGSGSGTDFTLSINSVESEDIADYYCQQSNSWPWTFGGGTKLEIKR	fulfilled
MM14 (antibody, IgG2b, V domains shown) VH: QVQLKESGPGLVAPSQSLSITCTVSGFSLTSYAVSWVRQPPGKGLEWLGIIWGDGSTNYHSALISRLSISKDNSKSQVFLKLNSLQTDDTATYYCAKQERFSDGYYDGFAYWGQGTLVTVSA VL: QIVLTQSPAIMSASPGEKVTITCSASSSVSYMHWFQQKPGTSPKLWIYSTSNLASGVPARFSGSGSGTSYSLTISRMEAEDAATYYCQQRSSYPFTFGSGTKLEIKR	fulfilled
MM08 (antibody, IgG1, V domains shown) VH: QVQLQQPGAELVRPGASVKLSCKSSDYTFTRYWMNWVKQRPGQGLEWIGMIDPSDSETHHNQMFKDKATLTVDKSSSTAYMQLSSLTSEDSAVYFCARYLGGKEGSFDYWGQGTTLTVSS VL: DIVLTQSPSSLAVSAGERVTMSCKSSQSLFNSRTRKNYLAWYQQKPGQSPKLLLYWASTRESGVPDRFTGSGSGTDFTLTISSVKTEDLAVYYCKQSYELPWTFGGGTKLEMKR	not fulfilled
MM05 (antibody, IgG1, V domains shown) VH: QVQLQQPGAELVRPGASVKLSCEASGYTFTSYWMNWVKQRPGQGLEWIGMIDPSDSETHYNQMFKDKATLTVDKSSSTAYMQLSSLTSEDSAVYYCARYLGGKEGSFDYWGQGTTLTVSS VL: DIVMSQSPSSLAVSAGEKVTMSCKSSQSLLNSRTRKNYLAWYQQKPGQSPKLLIYWASTRESGVPDRFTGSGSGTDFTLTISSVQAEDLAVYYCKQSYSLPWTFGGGTKLEIKR	not fulfilled

Every entry's value here was drawn from patent US20230080534A1.
